Origin of values: PubChem BioAssay (NCI)

test system: IGROV1 ovarian; experiment: NCI tumour cell line growth inhibition, 48 h
property label: TGI (µM)

C[C@]12CC[C@@H]3c4cc(Br)c(O)c(Br)c4CC[C@H]3[C@@H]1CC(Br)C2=O (stereo not given in full); 23.6
O=C1C(=O)c2cc([N+](=O)[O-])ccc2-c2ccc([N+](=O)[O-])cc21; 2.29
C[C@]12CC[C@@H]3c4ccc(O)cc4CC[C@H]3[C@@H]1CC[C@@H]2NS(=O)(=O)c1ccc(Cl)cc1; 18.4
O=S1c2ccccc2N=C(c2cccc3ccccc23)CC1c1cccc2ccccc12 (stereo not given); 34
CC(C)(C)c1ccc(O)c(CN(Cc2c(O)ccc3ccccc23)C2CCCCC2)c1; 32.7
Clc1ccc2c(N3CCN(c4ccnc(NC5CCCCC5)n4)CC3)ccnc2c1; 5.04
